species: Homo sapiens; assay: Inhibition of [3H]2-m-AzTax binding to P-gp in human SKVLB1 cell plasma membranes assessed as residual [3H]2-m-AzTax binding at 40 uM treated for 30 mins followed by UV irradiation measured after 10 mins by fluorographic method relative to control
MEASURE_NAME: Activity (%)

CC(=O)O[C@@]1(C2/C(C)=C(/O)C(=O)C3=C(C)[C@@H](OC(=O)[C@H](O)[C@H](C=C(C)C)NC(=O)OC(C)(C)C)C[C@@](O)([C@H]2OC(=O)c2cccc(Cl)c2)C3(C)C)CO[C@H]1CCO (stereo not given in full) :: 14
CC(=O)O[C@H]1C(=O)[C@@]2(C)[C@H]([C@H](OC(=O)c3cccc(N=[N+]=[N-])c3)[C@]3(O)C[C@H](OC(=O)[C@H](O)[C@@H](NC(=O)c4ccccc4)c4ccccc4)C(C)=C1C3(C)C)[C@]1(OC(C)=O)CO[C@@H]1C[C@@H]2O :: 16
CC(=O)O[C@@]12CO[C@@H]1C[C@H](O)[C@@]1(C)C(=O)[C@H](OC(=O)C3CC3)C3=C(C)[C@@H](OC(=O)[C@H](O)[C@H](C=C(C)C)NC(=O)OC(C)(C)C)C[C@@](O)([C@@H](OC(=O)c4ccccc4)[C@H]21)C3(C)C :: 11

a: CC(=O)O[C@H]1C(=O)[C@@]2(C)[C@H]([C@H](OC(=O)c3ccccc3)[C@]3(O)C[C@H](OC(=O)[C@H](O)[C@@H](NC(=O)c4ccccc4)c4ccccc4)C(C)=C1C3(C)C)[C@]1(OC(C)=O)CO[C@@H]1C[C@@H]2O [PACLITAXEL]
b: CC(=O)O[C@@]12CO[C@@H]1C[C@H](O)[C@@]1(C)C(=O)[C@H](O)C3=C(C)[C@@H](OC(=O)[C@H](O)[C@@H](NC(=O)OC(C)(C)C)c4ccccc4)C[C@@](O)([C@@H](OC(=O)c4ccccc4)[C@H]21)C3(C)C [DOCETAXEL ANHYDROUS]
Identify the entry with the larger Activity. Options: a and b Indicate your choice by writing its label.
b
(b: 45%, a: 18%)

* * *

test system: P-gp; test: Resistance index, ratio of IC50 for substrate activity at P-gp in human SKVLB1 cells assessed as inhibition of cell growth in presence of verapamil to IC50 for human SKOV3 cells in presence of verapamil; assay type: toxicity, cell-based; settings: SKVLB1 cells (P-gp) versus SKOV3 cells, with verapamil (concentration not stated), read-out: Ratio IC50
MEASURE_NAME: selectivity ratio
Provide a numeric answer; units are not to be included.

Requested read-out: selectivity ratio. Entry: CC(=O)O[C@H]1C(=O)[C@@]2(C)[C@H]([C@H](OC(=O)c3ccccc3)[C@]3(O)C[C@H](OC(=O)[C@H](O)[C@@H](NC(=O)c4ccccc4)c4ccccc4)C(C)=C1C3(C)C)[C@]1(OC(C)=O)CO[C@@H]1C[C@@H]2O [PACLITAXEL]
936

* * *

species: Homo sapiens; experiment: Inhibition of [3H]2-m-AzTax binding to P-gp in human SKVLB1 cell plasma membranes at 40 uM treated for 30 mins followed by UV irradiation for 10 mins by fluorographic method relative to control
MEASURE_NAME: inhibition

CC(=O)O[C@@]12CO[C@@H]1C[C@H](O)[C@@]1(C)C(=O)[C@H](OC(=O)C3CC3)C3=C(C)[C@@H](OC(=O)[C@H](O)[C@H](C=C(C)C)NC(=O)OC(C)(C)C)C[C@@](O)([C@@H](OC(=O)c4ccccc4)[C@H]21)C3(C)C :: 89%

Requested read-out: inhibition. Entry: CC(=O)O[C@@]1(C2/C(C)=C(/O)C(=O)C3=C(C)[C@@H](OC(=O)[C@H](O)[C@H](C=C(C)C)NC(=O)OC(C)(C)C)C[C@@](O)([C@H]2OC(=O)c2cccc(Cl)c2)C3(C)C)CO[C@H]1CCO (some centres undefined)
> 80%

Requested read-out: inhibition. Entry: CC(=O)O[C@@]12CO[C@@H]1C[C@H](O)[C@@]1(C)C(=O)[C@H](O)C3=C(C)[C@@H](OC(=O)[C@H](O)[C@@H](NC(=O)OC(C)(C)C)c4ccccc4)C[C@@](O)([C@@H](OC(=O)c4ccccc4)[C@H]21)C3(C)C [DOCETAXEL ANHYDROUS]
55%

* * *

tested on: HEY; test: Cytotoxicity against human HEY cells after 72 to 120 hrs by sulforhodamine B assay; format: functional, cell-based
// reported pIC50 for each item listed
Convention used: pIC50 is expressed as -log10 of the molar concentration.

CC(=O)O[C@@]12CO[C@@H]1C[C@H](O)[C@@]1(C)C(=O)[C@H](O)C3=C(C)[C@@H](OC(=O)[C@H](O)[C@@H](NC(=O)OC(C)(C)C)c4ccccc4)C[C@@](O)([C@@H](OC(=O)c4ccccc4)[C@H]21)C3(C)C [DOCETAXEL ANHYDROUS] :: 6.07
CC(=O)O[C@@]12CO[C@@H]1C[C@H](O)[C@@]1(C)C(=O)[C@H](OC(=O)C3CC3)C3=C(C)[C@@H](OC(=O)[C@H](O)[C@H](C=C(C)C)NC(=O)OC(C)(C)C)C[C@@](O)([C@@H](OC(=O)c4ccccc4)[C@H]21)C3(C)C :: 6.24
CC(=O)O[C@@]1(C2/C(C)=C(/O)C(=O)C3=C(C)[C@@H](OC(=O)[C@H](O)[C@H](C=C(C)C)NC(=O)OC(C)(C)C)C[C@@](O)([C@H]2OC(=O)c2cccc(Cl)c2)C3(C)C)CO[C@H]1CCO (some centres undefined) :: 6.09

Requested read-out: pIC50. Entry: CC(=O)O[C@H]1C(=O)[C@@]2(C)[C@H]([C@H](OC(=O)c3ccccc3)[C@]3(O)C[C@H](OC(=O)[C@H](O)[C@@H](NC(=O)c4ccccc4)c4ccccc4)C(C)=C1C3(C)C)[C@]1(OC(C)=O)CO[C@@H]1C[C@@H]2O
5.57
